Measured values drawn from ChEMBL document CHEMBL5370647 for this set.

Attribute: MIC90
System: Mycobacterium tuberculosis
protocol: Antitubercular activity against non-replicating Mycobacterium tuberculosis H37Rv expressing luxCDAB assessed as inhibition of bacterial growth incubated for 7 days under hypoxia conditions followed by incubation in normoxia conditions for 5 days by luminescence based analysis
Type: functional
experimental-setup: 288 h, time 12 day
Kindly answer with a numeric value in µM, unit omitted.

{"substance-smiles": "Cc1cccc(-c2nc(Nc3ccncc3)c3cc(O)ccc3n2)n1", "assayed-target": "Mycobacterium tuberculosis", "MIC90, µM": 2.5}

Challenge: Please look at this compound and report its MIC90: FC(F)(F)c1cccc(-c2nc(Nc3ccncc3)c3ccccc3n2)n1
Response given: 5

Challenge: Please look at this compound and report its MIC90: Cc1cccc(-c2nc(Nc3ccc4nn(C)cc4c3)c3ccccc3n2)n1
Response given: 1.3

Challenge: Please look at this compound and report its MIC90: Cc1cccc(-c2nc(Nc3ccc4c(c3)nnn4C)c3ccccc3n2)n1
Response given: 1.3

Challenge: Please look at this compound and report its MIC90: Cc1cccc(-c2nc(Nc3ccc4[nH]ncc4c3)c3ccccc3n2)n1
Response given: 5

Challenge: Please look at this compound and report its MIC90: Cc1cccc(-c2nc(Nc3ccc4c(c3)ncn4C)c3ccccc3n2)n1
Response given: 5

Challenge: Please look at this compound and report its MIC90: Cc1cccc(-c2nc(Nc3ccc4[nH]ccc4c3)c3ccccc3n2)n1
Response given: 1.3

Challenge: Please look at this compound and report its MIC90: Cc1cccc(-c2nc(Nc3ccc4ccsc4c3)c3ccccc3n2)n1
Response given: 0.3

---

Test system: Mycobacterium tuberculosis
protocol: Antitubercular activity against non-replicating Mycobacterium tuberculosis H37Rv expressing luxCDAB assessed as inhibition of bacterial growth incubated for 7 days under hypoxia conditions followed by incubation in normoxia conditions for 5 days by luminescence based analysis
Type: functional
experimental-setup: 288 h, time 12 day
assay-readout: MIC50 (µM)
Kindly answer with a numeric value in µM, unit omitted.

{"substance-smiles": "c1ccc(-c2nc(Nc3ccncc3)c3ccccc3n2)nc1", "endpoint-unit": "µM", "MIC50": 1}
{"substance-smiles": "Fc1cccc(-c2nc(Nc3ccncc3)c3ccccc3n2)n1", "endpoint-unit": "µM", "MIC50": 1}

Now look at this one.
Challenge: Please look at this compound and report its MIC50: Cc1cccc(-c2cc(Nc3ccncc3)c3ccccc3n2)n1
Response given: 2.5

---

Attribute: log10(MIC90)
Test system: Mycobacterium tuberculosis
protocol: Antitubercular activity against non-replicating Mycobacterium tuberculosis H37Rv constitutively expressing GFP assessed as inhibition of bacterial growth incubated for 7 days under hypoxic condition followed by incubation in aerobic conditions for 1 to 5 days by spot assay
Assay type: functional
experimental-setup: time 8-12 day
Scale: log10; quantity: MIC90; unit before log: µM

Challenge: Please look at this compound and report its log10(MIC90): Cn1cncc1-c1ccc2ncnc(Nc3ccc(OCc4ccccc4)cc3)c2c1
Response given: 1.04

---

Tested on: Mycobacterium tuberculosis
protocol: Antitubercular activity against non-replicating Mycobacterium tuberculosis H37Rv expressing luxCDAB assessed as inhibition of bacterial growth incubated for 7 days under hypoxia conditions followed by incubation in normoxia conditions for 5 days by luminescence based analysis
Assay type: functional
experimental-setup: 288 h, time 12 day
assay-readout: MIC50

{"substance-smiles": "Cc1cccc(-c2nc(Oc3ccc4ncsc4c3)c3ccccc3n2)n1", "MIC50": "< 0.3 µM"}
{"substance-smiles": "FC(F)(F)c1cccc(-c2nc(Nc3ccncc3)c3ccccc3n2)n1", "MIC50": "1 µM"}
{"substance-smiles": "c1ccc2c(Nc3ccncc3)nc(-c3ccc4c(c3)OCO4)nc2c1", "MIC50": "> 10 µM"}
{"substance-smiles": "Clc1cccc(-c2nc(Nc3ccncc3)c3ccccc3n2)n1", "MIC50": "< 1 µM"}
{"substance-smiles": "COc1ccc2c(Nc3ccncc3)nc(-c3cccc(C)n3)nc2c1", "MIC50": "1 µM"}

Challenge: Find MIC50 for Cc1cccc(-c2nc(Nc3ccc4scnc4c3)c3ccccc3n2)n1 on Mycobacterium tuberculosis and write it down.
Response given: < 0.3 µM

Challenge: Find MIC50 for Cc1cccc(-c2nc(Nc3ccc4ncoc4c3)c3ccccc3n2)n1 on Mycobacterium tuberculosis and write it down.
Response given: 0.3 µM

Challenge: Find MIC50 for Cc1cccc(-c2nc(Nc3ccncc3)c3ccccc3n2)n1 on Mycobacterium tuberculosis and write it down.
Response given: < 0.3 µM

Challenge: Find MIC50 for Cc1cccc(-c2nc(Nc3ccc4ccsc4c3)c3ccccc3n2)n1 on Mycobacterium tuberculosis and write it down.
Response given: < 0.3 µM

Challenge: Find MIC50 for Cc1cccc(-c2nc(C)cc(Nc3ccncc3)n2)n1 on Mycobacterium tuberculosis and write it down.
Response given: < 1 µM

Challenge: Find MIC50 for c1cncc(-c2nc(Nc3ccncc3)c3ccccc3n2)c1 on Mycobacterium tuberculosis and write it down.
Response given: > 10 µM

Challenge: Find MIC50 for Cc1cccc(-c2nc(Nc3ccncc3)c3ccn(C)c3n2)n1 on Mycobacterium tuberculosis and write it down.
Response given: < 1 µM

Challenge: Find MIC50 for Cc1cccc(-c2nc(Nc3ccc4[nH]ncc4c3)c3ccccc3n2)n1 on Mycobacterium tuberculosis and write it down.
Response given: < 0.3 µM

Challenge: Find MIC50 for Cc1cccc(-c2nc(Nc3ccc4ncsc4c3)c3ccccc3n2)n1 on Mycobacterium tuberculosis and write it down.
Response given: < 0.3 µM

Challenge: Find MIC50 for Cc1cccc(-c2nc(Nc3ccc4nc(C)sc4c3)c3ccccc3n2)n1 on Mycobacterium tuberculosis and write it down.
Response given: < 0.3 µM

Challenge: Find MIC50 for Cc1cccc(-c2nc(N(C)c3ccc4ncsc4c3)c3ccccc3n2)n1 on Mycobacterium tuberculosis and write it down.
Response given: < 0.3 µM

Challenge: Find MIC50 for Cc1cccc(-c2nc(Nc3ccc4c(c3)ncn4C)c3ccccc3n2)n1 on Mycobacterium tuberculosis and write it down.
Response given: 1.3 µM

Challenge: Find MIC50 for Cc1cccc(-c2nc(Nc3ccc4nn[nH]c4c3)c3ccccc3n2)n1 on Mycobacterium tuberculosis and write it down.
Response given: 1.3 µM

Challenge: Find MIC50 for Cc1cccc(-c2nc(Oc3ccc4scnc4c3)c3ccccc3n2)n1 on Mycobacterium tuberculosis and write it down.
Response given: < 0.3 µM

Challenge: Find MIC50 for Cc1cccc(-c2nc(Nc3ccc4c(cnn4C)c3)c3ccccc3n2)n1 on Mycobacterium tuberculosis and write it down.
Response given: < 0.3 µM

---

assayed-target: TGF-beta receptor type-1 (Homo sapiens, UniProt P36897)
Sequence (P36897 whole entry): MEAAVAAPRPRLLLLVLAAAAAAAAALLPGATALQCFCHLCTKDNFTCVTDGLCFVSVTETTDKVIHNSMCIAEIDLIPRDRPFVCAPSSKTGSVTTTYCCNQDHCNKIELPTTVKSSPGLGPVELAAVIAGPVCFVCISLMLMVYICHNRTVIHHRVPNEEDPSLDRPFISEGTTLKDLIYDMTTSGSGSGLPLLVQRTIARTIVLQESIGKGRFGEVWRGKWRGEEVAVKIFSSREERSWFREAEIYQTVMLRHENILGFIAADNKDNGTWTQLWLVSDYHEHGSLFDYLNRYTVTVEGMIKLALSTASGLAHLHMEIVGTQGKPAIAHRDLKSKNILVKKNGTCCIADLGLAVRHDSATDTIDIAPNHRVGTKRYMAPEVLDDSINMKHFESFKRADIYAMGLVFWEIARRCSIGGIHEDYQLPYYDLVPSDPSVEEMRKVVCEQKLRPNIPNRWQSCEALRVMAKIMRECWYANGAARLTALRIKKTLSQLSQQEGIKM
pKd: −log10 of the molar value.
Attribute: pKd

Answered examples (2):
{"substance-smiles": "Cc1cccc(-c2nc(Nc3ccc4nc(C)sc4c3)c3ccccc3n2)n1", "pKd": "< 5.00"}
{"substance-smiles": "Cc1cccc(-c2nc(Nc3ccc4c(c3)nnn4C)c3ccccc3n2)n1", "pKd": "< 5.00"}

Challenge: Find pKd for Cc1cccc(-c2nc(Nc3ccc4occc4c3)c3ccccc3n2)n1 on TGF-beta receptor type-1 (Homo sapiens, UniProt P36897) and write it down.
Response given: < 5.00

Challenge: Find pKd for Cc1cccc(-c2nc(Nc3ccc4scnc4c3)c3ccccc3n2)n1 on TGF-beta receptor type-1 (Homo sapiens, UniProt P36897) and write it down.
Response given: < 5.00

Challenge: Find pKd for Cc1cccc(-c2nc(Nc3ccncc3)c3ccccc3n2)n1 on TGF-beta receptor type-1 (Homo sapiens, UniProt P36897) and write it down.
Response given: 8.00

Challenge: Find pKd for Cc1cccc(-c2nc(Nc3ccc4c(c3)ncn4C)c3ccccc3n2)n1 on TGF-beta receptor type-1 (Homo sapiens, UniProt P36897) and write it down.
Response given: < 5.00

---

System: Mycobacterium tuberculosis
protocol: Antitubercular activity against non-replicating Mycobacterium tuberculosis H37Rv expressing luxCDAB assessed as inhibition of bacterial growth incubated for 7 days under hypoxia conditions followed by incubation in normoxia conditions for 5 days by luminescence based analysis
Format: functional
experimental-setup: 288 h, time 12 day
assay-readout: MIC90

{"substance-smiles": "COc1cncc(-c2nc(Nc3ccncc3)c3ccccc3n2)n1", "MIC90": "> 10 µM"}
{"substance-smiles": "Cc1cccc(-c2cc(Nc3ccncc3)c3ccccc3n2)n1", "MIC90": "> 10 µM"}

Now look at this one.
Challenge: Please look at this compound and report its MIC90: c1cnc(-c2nc(Nc3ccncc3)c3ccccc3n2)nc1
Response given: > 10 µM
